- System: TK-10 renal
- test details: NCI-60 one-dose screen, 48 h (100 = growth as untreated, 0 = no growth, -100 = all killed)
- assay context: 10 µM unless noted
Compounds without any hit were thinned out: in the full panel of roughly 83,000, 20% have a hit.
Below, each of the molecules is paired with its reported growth value.

smiles entry: CN(C)c1ncc(/C=C2\SC(=S)N(Cc3ccccc3Cl)C2=O)s1
growth, %: 96.7

smiles entry: C#C[C@]1(O)CC[C@H]2[C@@H]3CC=C4c5sc(Nc6nc(C)cc(OC)n6)nc5CC[C@]4(C)[C@H]3CC[C@@]21C
growth, %: 121

smiles entry: COc1cc2c3c(n(CCCN4CCC[C@H]4C(N)=O)c(=O)c2cc1OC)-c1cc2c(cc1C3=O)OCO2
growth, %: 59

smiles entry: COc1ccc(-c2ccc3c4c(cccc24)C(=O)N(N2C(=O)c4cccc5cccc(c45)C2=O)C3=O)cc1
growth, %: 134
